B1: tRNA (parent)
chain: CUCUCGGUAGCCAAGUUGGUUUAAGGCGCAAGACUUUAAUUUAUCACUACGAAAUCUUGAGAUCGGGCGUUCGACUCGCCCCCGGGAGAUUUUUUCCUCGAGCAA

Variants of: B1
Assay: nonsense suppression (GFP-seq) (ratio to wild type); higher = more function; SUP4oc tRNA, yeast GFP reporter sort-seq
Fewer inactive variants are shown than the library holds.
measureName: nonsense suppression
// return just the number, without any unit appended

U8C G28C; 0.0327
A13C C75A; 1.09
C3U C68U; 0.201
G7U A54C; 0.0394
G25C A60G; 0.0619
G15A A24C; 0.0467
C12U C75G; 1.23
U76C C81U; 0.0575

Value of measured nonsense suppression for the entry U4C C11U : 0.109

Value of measured nonsense suppression for the entry A30G A74G : 0.098

Value of measured nonsense suppression for the entry A33U A60U : 0.204

Value of measured nonsense suppression for the entry A60C G73C : 0.0519

Value of measured nonsense suppression for the entry U63A C75G U76C : 1.19

Value of measured nonsense suppression for the entry A9C U22A : 0.709

Value of measured nonsense suppression for the entry U20C G28A : 0.192

Value of measured nonsense suppression for the entry U4A U63A : 0.155

Value of measured nonsense suppression for the entry U17C G61A : 0.235

Value of measured nonsense suppression for the entry A13C A30U G85A : 0.157
